System: K. pneumoniae SI-117 producing VIM-1
outcomeMeasure: MIC

// worked examples, MIC included
INSERT INTO measurements (compound, datavalue) VALUES
  ('NCCCN1CCN(C(=O)N[C@@H](C(=O)N[C@H]2Cc3cccc(C(=O)O)c3OB2O)c2cc(F)c(O)c(F)c2F)C(=O)C1=O (single isomer, unassigned)', '8 to 16 µg/mL'),
  ('CCN1CCN(C(=O)NC(C(=O)N[C@H]2Cc3cccc(C(=O)O)c3OB2O)c2cccc(S(N)(=O)=O)c2)C(=O)C1=O (some centres unmarked)', '32 to 64 µg/mL'),
  ('CCN1CCN(C(=O)NC(C(=O)N[C@H]2Cc3cccc(C(=O)O)c3OB2O)c2cc([N+](=O)[O-])c(O)cc2F)C(=O)C1=O (some centres unmarked)', '> 128 µg/mL'),
  ('NC1(CN2CCN(C(=O)NC(C(=O)N[C@H]3Cc4cccc(C(=O)O)c4OB3O)c3cc(F)c(O)c(F)c3F)C(=O)C2=O)CC1 (single isomer, unassigned)', '8 to 16 µg/mL');

Now consider a different compound.
query: # get_value(readout='MIC', item= NC1(CN2CCN(C(=O)N[C@H](C(=O)N[C@H]3Cc4cccc(C(=O)O)c4OB3O)c3ccc(O)c(F)c3F)C(=O)C2=O)CC1 (single isomer, unassigned) )
result: 32 to 64 µg/mL

Data provenance is patent US20230114728A1.
